Ref: patent US7138361B2

- System: Nightshade
- MEASUREMENT_NOTES: Test C preemergence
- Type: in vivo
- MEASUREMENT_SETUP: Rate 500 g/ha, visual evaluation after 12 to 14 days
REPORTED_PROPERTY: Plant response rating (0 to 100), Nightshade

MOLECULE | ASSAY_RESULT
CCCC(C)c1ccn(C2OCN(c3cccc(C(F)(F)F)c3)C2=O)n1 (stereo not drawn) [Compound 89] | 30
CC(C)Oc1cccc(N2CCC(n3ccc(C(C)(C)C)n3)C2=O)c1 (stereo not drawn) [Compound 70] | 70
COc1cc(N2CCC(n3ccc(C(C)(C)C)n3)C2=O)ccc1Br (stereo not drawn) [Compound 141] | 100
Cc1ccc(N2CCC(n3ccc(C(C)(C)C)n3)C2=O)cc1OC(F)F (stereo not drawn) [Compound 79] | 90
CCC(CC)c1ccn(C2CCN(c3ccc(Br)c(OC)c3)C2=O)n1 (stereo not drawn) [Compound 143] | 100
CCC(C)c1ccn(C2CCN(c3ccc(Cl)c(OC)c3)C2=O)n1 (stereo not drawn) [Compound 119] | 100
COc1cccc(N2CCC(n3ccc(C(C)(C)C)n3)C2=O)c1 (stereo not drawn) [Compound 87] | 90
CCCOc1cc(N2CCC(n3ccc(C(C)(C)C)n3)C2=O)ccc1C (stereo not drawn) [Compound 107] | 90
CCC(CC)c1ccn(C2OCN(c3cccc(OC(F)F)c3)C2=O)n1 (stereo not drawn) [Compound 131] | 100
CCCC(C)c1ccn(C2CCN(c3cccc(OC)c3)C2=O)n1 (stereo not drawn) [Compound 99] | 10
COc1cc(N2CCC(n3ccc(C(C)C)n3)C2=O)ccc1Cl (stereo not drawn) [Compound 120] | 100
CCC(CC)c1ccn(C2CCN(c3ccc(F)c(C(F)(F)F)c3)C2=O)n1 (stereo not drawn) [Compound 144] | 100
